- Target of assay: human CD137 on primary human CD8+ T cells (human, UniProt Q07011 24-255)
- Sequence (Q07011 24-255): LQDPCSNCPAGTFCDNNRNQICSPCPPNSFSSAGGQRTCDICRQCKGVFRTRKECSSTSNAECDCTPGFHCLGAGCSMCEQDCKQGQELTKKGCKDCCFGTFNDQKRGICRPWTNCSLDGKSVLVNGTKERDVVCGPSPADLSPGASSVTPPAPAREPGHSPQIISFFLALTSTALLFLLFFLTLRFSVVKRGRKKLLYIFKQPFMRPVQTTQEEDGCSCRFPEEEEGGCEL
- Method summary: cell-based or functional assay
Attribute measured: IL-2 release EC50, NCI-H226 co-culture, Donor B

INSERT INTO results (binder, obs_value) VALUES
  ('FS22-172-003-AA/FS28-024 (bispecific antibody, human IgG1, kappa, L234A L235A, V domains shown, IgG1 mAb^2 with LALA; also called FS28-024 in CD137 mAb^2 format) VH: EVQLLESGGGLVQPGGSLRLSCAASGFTLSYSSMSWVRQAPGKGLEWVSFITPSTGYTHYADSVKGRFTISRDNSKNTLYLQMNSLRAEDTAVYYCARRALTFDYWGQGTLVTVSS VL: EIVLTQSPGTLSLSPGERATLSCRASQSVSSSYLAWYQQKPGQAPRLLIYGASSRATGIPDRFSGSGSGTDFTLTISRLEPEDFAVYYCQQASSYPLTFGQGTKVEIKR', '0.03 nM'),
  ('FS22-172-003-AA/FS28-256-023 (bispecific antibody, human IgG1, kappa, L234A L235A, V domains shown, IgG1 mAb^2 with LALA) VH: EVQLLESGGGLVQPGGSLRLSCAASGFTFTQTYMSWVRQAPGKGLEWVSNISPTYSTTNYADSVKGRFTISRDNSKNTLYLQMNSLRAEDTAVYYCARYNAYQIGLDYWGQGTLVTVSS VL: EIVLTQSPGTLSLSPGERATLSCRASQSVSSSYLAWYQQKPGQAPRLLIYGASSRATGIPDRFSGSGSGTDFTLTISRLEPEDFAVYYCQQHNQYPNTFGQGTKVEIKR', '0.23 nM'),
  ('FS22-172-003-AA/FS28-256 (bispecific antibody, human IgG1, kappa, L234A L235A, V domains shown, IgG1 mAb^2 with LALA) VH: EVQLLESGGGLVQPGGSLRLSCAASGFTFTNTYMSWVRQAPGKGLEWVSNISPTYSTTNYADSVKGRFTISRDNSKNTLYLQMNSLRAEDTAVYYCARYNSYQGGLDYWGQGTLVTVSS VL: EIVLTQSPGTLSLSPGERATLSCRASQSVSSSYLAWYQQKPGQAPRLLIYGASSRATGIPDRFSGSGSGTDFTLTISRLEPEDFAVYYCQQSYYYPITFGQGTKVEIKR', '22.2 nM');
